test: basal S. cerevisiae growth modulation, no modifier, primary screen, OD600, strain BY4716, 24 h, basal condition (AID 1173); conditions: OD600, 24 h, higher = more signal, called active from +8 up or from −8 down
The following molecules are listed with their measured z-score values.
PROPERTY MEASURED: z-score

[[record]]
molecule = "COCCOC(=O)N1C(=O)[C@@]2(c3cc(C#CC4(O)CCCCCC4)ccc31)[C@H](C(=O)NC[C@H](O)c1ccccc1)[C@H]1C(=O)O[C@H](c3ccccc3)[C@H](c3ccccc3)N1[C@@H]2c1ccccc1OCCO"
value_reported = 1.26

[[record]]
molecule = "C=C(COC)C(=O)CC[C@H](OC(=O)c1cccnc1)c1cccc(OCCO)c1"
value_reported = -0.221

[[record]]
molecule = "CC(C)C(CO)N1C(=O)[C@@H]2C3C(=O)OCCC/C=C\\[C@H]3OC23C=CCN(C(C)C)C(=O)[C@@H]13 (some centres undefined)"
value_reported = -0.953

[[record]]
molecule = "C=C(COC)/C(=C/C[C@H](OC(C)=O)c1cccc(OCCO)c1)c1cc(C(=O)OC)ccc1OC"
value_reported = -17.6

[[record]]
molecule = "COC(=O)C(CC#Cc1ccc2c(c1)[C@]1(C(=O)N2)[C@H](C(=O)O)[C@H]2C(=O)O[C@H](c3ccccc3)[C@H](c3ccccc3)N2[C@@H]1c1ccc(OCCO)cc1)C(=O)OC"
value_reported = -0.842

[[record]]
molecule = "COC(=O)c1c2oc(c1C(=O)OC)C(=O)N[C@@H](C(C)C)Cn1nncc1C1(CCCCC1)NC(=O)N[C@H](CO)CC2"
value_reported = -3.46

[[record]]
molecule = "COCCOC(=O)N1C(=O)[C@@]2(c3cc(C#CCNC(N)=O)ccc31)[C@H](c1ccccc1OCCO)N1[C@H](c3ccccc3)[C@H](c3ccccc3)OC(=O)[C@H]1[C@@H]2C(=O)Nc1nc2ccccc2s1"
value_reported = -0.267

[[record]]
molecule = "COC(=O)[C@@]1(CCC(=O)OC(C)(C)C)COC(c2ccc(OCCCO)cc2)=N1"
value_reported = -1.27

[[record]]
molecule = "CCOC(=O)C[C@H]1[C@H](OC(=O)c2ccc(-c3ccccc3)cc2)[C@@H](NC(=O)C2CCCCC2)c2cc(OCCCO)ccc2N1C(=O)c1ccc2ccccc2n1"
value_reported = -0.275

[[record]]
molecule = "C[N+](C)(C)CCCC[C@@H]1NC(=O)[C@@H]2C[C@H](C(=O)NCCCCCNC(=O)CS)[C@H](c3ccc(O)cc3)N2C1=O"
value_reported = -1.15

[[record]]
molecule = "CC(CO)N1C(=O)[C@@H]2C3C(=O)OCCC/C=C\\[C@H]3OC23C=CCN(Cc2ccccc2)C(=O)[C@@H]13 (some centres undefined)"
value_reported = -0.703

[[record]]
molecule = "[N-]=[N+]=NCc1ccccc1C[C@@]1(C(=O)NCc2ccccc2)N=C(c2ccc(OCCCO)cc2)O[C@@H]1c1ccccc1"
value_reported = 1.47

[[record]]
molecule = "CC(C)(C)OC(=O)CC[C@]1(C(=O)NCc2ccccc2)N=C(c2ccc(OCCCO)cc2)O[C@H]1c1ccccc1N=[N+]=[N-]"
value_reported = 0

[[record]]
molecule = "CCOC(=O)C[C@H]1[C@H](OC(=O)c2cc3ccccc3oc2=O)[C@@H](NC(=O)c2ccccc2)c2cc(OCCCO)ccc2N1C(=O)Cc1ccc(OC)cc1"
value_reported = -1.99

